system: P388 mouse leukemia cells; details: 92 h
Where a SMILES comes first, the peptide text is derived from it. [ ]: non-standard residue; d: D form. The star is where a group is joined. NHCH2CH2OH = OCCN*; For = O=C*

[
  {
    "molecule": "CC(C)C[C@@H](NC(=O)[C@H](Cc1c[nH]c2ccccc12)NC(=O)[C@H](NC(=O)[C@H](Cc1c[nH]c2ccccc12)NC(=O)[C@H](NC(=O)[C@H](Cc1c[nH]c2ccccc12)NC(=O)[C@@H](CC(C)C)NC(=O)[C@@H](NC(=O)[C@H](NC(=O)[C@H](C)NC(=O)[C@H](NC(=O)[C@H](C)NC(=O)CNC(=O)[C@@H](NC=O)C(C)C)C(C)C)C(C)C)C(C)C)C(C)C)[C@H](C)O)C(=O)N[C@@H](Cc1c[nH]c2ccccc12)C(=O)NCCO [compound 2580] (For-VGA[dV]A[dV]V[dL]W[dV]W[dT]W[dL]W-NHCH2CH2OH)",
    "cell viability/% (%)": 100.0
  }
]

###

details: cell viability/%
Where a SMILES comes first, the peptide text is derived from it. [ ]: non-standard residue; d: D form. The star is where a group is joined. NHCH2CH2OH = OCCN*; For = O=C*

[
  {
    "compound": "CC(C)C[C@@H](NC(=O)[C@H](C)NC(=O)CNC(=O)[C@@H](NC=O)C(C)C)C(=O)N[C@@H](C)C(=O)N[C@@H](C(=O)N[C@H](C(=O)N[C@H](CC(C)C)C(=O)N[C@@H](Cc1c[nH]c2ccccc12)C(=O)N[C@@H](C(=O)N[C@@H](Cc1c[nH]c2ccccc12)C(=O)N[C@@H](C(=O)N[C@@H](Cc1c[nH]c2ccccc12)C(=O)N[C@H](CC(C)C)C(=O)N[C@@H](Cc1c[nH]c2ccccc12)C(=O)NCCO)C(C)C)C(C)C)C(C)C)C(C)C [compound 8051] (For-VGA[dL]A[dV]V[dL]W[dV]W[dV]W[dL]W-NHCH2CH2OH)",
    "viability (%)": 16.8
  }
]

###

test system: Streptococcus pyogenes SSI-9; assay: Antibacterial activity assay of bead-derived peptides (three concentrations); format: cell-based; set-up: key: +++: inhibition by the 640-fold diluted peptide solution; ++: inhibition by the 160-fold diluted solution; +: inhibition by the 40-fold diluted solution; -: no inhibition; conditions: S. pyogenes, bead-derived peptide solution, three concentrations
Where a SMILES comes first, the peptide text is derived from it. [ ]: non-standard residue; d: D form. The star is where a group is joined. NHCH2CH2OH = OCCN*; For = O=C*

[
  {
    "molecule": "CC(C)C[C@@H](NC(=O)[C@H](C)NC(=O)CNC(=O)[C@@H](NC=O)C(C)C)C(=O)N[C@@H](C)C(=O)N[C@H](CC(C)C)C(=O)N[C@H](C(=O)N[C@H](CC(C)C)C(=O)N[C@@H](Cc1c[nH]c2ccccc12)C(=O)N[C@H](CC(C)C)C(=O)N[C@@H](Cc1c[nH]c2ccccc12)C(=O)N[C@@H](C(=O)N[C@@H](Cc1c[nH]c2ccccc12)C(=O)N[C@H](CC(C)C)C(=O)N[C@@H](Cc1c[nH]c2ccccc12)C(=O)NCCO)C(C)C)C(C)C [compound 646] (For-VGA[dL]A[dL]V[dL]W[dL]W[dV]W[dL]W-NHCH2CH2OH)",
    "antibacterial activity": "+"
  },
  {
    "molecule": "CC(C)C[C@@H](NC(=O)[C@H](C)NC(=O)CNC(=O)[C@@H](NC=O)C(C)C)C(=O)N[C@@H](C)C(=O)N[C@H](CC(C)C)C(=O)N[C@H](C(=O)N[C@@H](C(=O)N[C@@H](Cc1c[nH]c2ccccc12)C(=O)N[C@@H](C(=O)N[C@@H](Cc1c[nH]c2ccccc12)C(=O)N[C@H](CC(C)C)C(=O)N[C@@H](Cc1c[nH]c2ccccc12)C(=O)N[C@H](CC(C)C)C(=O)N[C@@H](Cc1c[nH]c2ccccc12)C(=O)NCCO)[C@H](C)O)[C@H](C)O)C(C)C [compound 4421] (For-VGA[dL]A[dL]V[dT]W[dT]W[dL]W[dL]W-NHCH2CH2OH)",
    "antibacterial activity": "-"
  },
  {
    "molecule": "CC(C)C[C@@H](NC(=O)[C@H](Cc1c[nH]c2ccccc12)NC(=O)[C@H](NC(=O)[C@H](Cc1c[nH]c2ccccc12)NC(=O)[C@@H](CC(C)C)NC(=O)[C@H](Cc1c[nH]c2ccccc12)NC(=O)[C@H](NC(=O)[C@@H](NC(=O)[C@H](NC(=O)[C@H](C)NC(=O)[C@H](NC(=O)[C@H](C)NC(=O)CNC(=O)[C@@H](NC=O)C(C)C)C(C)C)[C@H](C)O)C(C)C)C(C)C)C(C)C)C(=O)N[C@@H](Cc1c[nH]c2ccccc12)C(=O)NCCO [compound 7912] (For-VGA[dV]A[dT]V[dV]W[dL]W[dV]W[dL]W-NHCH2CH2OH)",
    "antibacterial activity": "-"
  },
  {
    "molecule": "CNC(=O)C[C@@H](NC(=O)[C@@H](NC(=O)[C@H](NC(=O)[C@H](C)NC(=O)[C@H](NC(=O)[C@H](C)NC(=O)CNC(=O)[C@@H](NC=O)C(C)C)C(C)C)C(C)C)C(C)C)C(=O)N[C@@H](Cc1c[nH]c2ccccc12)C(=O)N[C@H](CC(C)C)C(=O)N[C@@H](Cc1c[nH]c2ccccc12)C(=O)N[C@H](CC(C)C)C(=O)N[C@@H](Cc1c[nH]c2ccccc12)C(=O)N[C@H](CC(C)C)C(=O)N[C@@H](Cc1c[nH]c2ccccc12)C(=O)NCCO [compound 2218] (For-VGA[dV]A[dV]V[dD](NHMe)W[dL]W[dL]W[dL]W-NHCH2CH2OH)",
    "antibacterial activity": "-"
  },
  {
    "molecule": "CC(C)C[C@@H](NC(=O)[C@H](C)NC(=O)CNC(=O)[C@@H](NC=O)C(C)C)C(=O)N[C@@H](C)C(=O)N[C@@H](C(=O)N[C@H](C(=O)N[C@H](CC(C)C)C(=O)N[C@@H](Cc1c[nH]c2ccccc12)C(=O)N[C@@H](C(=O)N[C@@H](Cc1c[nH]c2ccccc12)C(=O)N[C@H](CC(C)C)C(=O)N[C@@H](Cc1c[nH]c2ccccc12)C(=O)N[C@@H](C(=O)N[C@@H](Cc1c[nH]c2ccccc12)C(=O)NCCO)[C@H](C)O)C(C)C)C(C)C)C(C)C [compound 8906] (For-VGA[dL]A[dV]V[dL]W[dV]W[dL]W[dT]W-NHCH2CH2OH)",
    "antibacterial activity": "+"
  },
  {
    "molecule": "CC(C)C[C@@H](NC(=O)[C@H](C)NC(=O)[C@H](NC(=O)[C@H](C)NC(=O)CNC(=O)[C@@H](NC=O)C(C)C)[C@H](C)O)C(=O)N[C@H](C(=O)N[C@H](CC(C)C)C(=O)N[C@@H](Cc1c[nH]c2ccccc12)C(=O)N[C@@H](C(=O)N[C@@H](Cc1c[nH]c2ccccc12)C(=O)N[C@H](CC(C)C)C(=O)N[C@@H](Cc1c[nH]c2ccccc12)C(=O)N[C@H](CC(C)C)C(=O)N[C@@H](Cc1c[nH]c2ccccc12)C(=O)NCCO)[C@H](C)O)C(C)C [compound 131] (For-VGA[dT]A[dL]V[dL]W[dT]W[dL]W[dL]W-NHCH2CH2OH)",
    "antibacterial activity": "-"
  },
  {
    "molecule": "CNC(=O)C[C@@H](NC(=O)[C@@H](NC(=O)[C@H](NC(=O)[C@H](C)NC(=O)[C@H](NC(=O)[C@H](C)NC(=O)CNC(=O)[C@@H](NC=O)C(C)C)C(C)C)C(C)C)C(C)C)C(=O)N[C@@H](Cc1c[nH]c2ccccc12)C(=O)N[C@H](CC(C)C)C(=O)N[C@@H](Cc1c[nH]c2ccccc12)C(=O)N[C@H](CC(C)C)C(=O)N[C@@H](Cc1c[nH]c2ccccc12)C(=O)N[C@H](CC(C)C)C(=O)N[C@@H](Cc1c[nH]c2ccccc12)C(=O)NCCO [compound 6862] (For-VGA[dV]A[dV]V[dD](NHMe)W[dL]W[dL]W[dL]W-NHCH2CH2OH)",
    "antibacterial activity": "-"
  },
  {
    "molecule": "CNC(=O)C[C@@H](NC(=O)[C@@H](NC(=O)[C@@H](CC(C)C)NC(=O)[C@H](C)NC(=O)[C@H](NC(=O)[C@H](C)NC(=O)CNC(=O)[C@@H](NC=O)C(C)C)C(C)C)C(C)C)C(=O)N[C@@H](Cc1c[nH]c2ccccc12)C(=O)N[C@H](CC(C)C)C(=O)N[C@@H](Cc1c[nH]c2ccccc12)C(=O)N[C@H](CC(C)C)C(=O)N[C@@H](Cc1c[nH]c2ccccc12)C(=O)N[C@@H](C(=O)N[C@@H](Cc1c[nH]c2ccccc12)C(=O)NCCO)C(C)C [compound 9229] (For-VGA[dV]A[dL]V[dD](NHMe)W[dL]W[dL]W[dV]W-NHCH2CH2OH)",
    "antibacterial activity": "-"
  }
]
